Hello, the source for this data is the supplement of paper PMC12764529, in case you need it.

Assay: folding stability dG unfold from chymotrypsin proteolysis; higher = more stable
folding stability dG unfold listing for selected sequences.
Your answer is read as kcal/mol, so omit the unit and give the number.

RESIDUES: SAGGMTLTLTGPEEVVDDLLERLREEFPDVTVEPTAVSYDPATGLVTVPVRVVTEDPAVVAAIRAALSSAGG [r13_539_JUSTAS]
RESULT_UNITS: kcal/mol
QUANTITATIVE_RESULT: 3.56

RESIDUES: SAGKKVTILIVVPETEEEAKKLAEELAKELAEKTGLEKVEVKVVPKGMTLEQLKELAKENNVDLVILVSAGG [r19_89_TrROS_Hall]
RESULT_UNITS: kcal/mol
QUANTITATIVE_RESULT: 3.09

RESIDUES: SAGGSAGGSSVSVSFPSSVTKVEPELNDPNLTTFFESPGLVIKVTVVPGTGKVIIEKKPLSELSAGGSAGGS [r12_858_JUSTAS]
RESULT_UNITS: kcal/mol
QUANTITATIVE_RESULT: -0.663

Could you now look at the following sequence, please?
Indicate its recorded folding stability dG unfold; the sequence in question is SKIKILIAMTEDEIKKLAEELKKKGYEIKIKVKKIEKKKVKVKNKDGKTYEKEVVLVEVEIEIVPKGVKPSA [r9_991_TrROS_Hall]
3.98
